# Test system: HCT116 MTAP KO
# Measurement protocol: Cell proliferation inhibition (CellTiter Glo), HCT116 MTAP KO cells
# Assay type: cell-based
# Study conditions: Homo sapiens, HCT-116, 144 h, cultured 6 days with compound
This listing pairs compounds with measured IC50.
Parameter measured: IC50 (nM)

INSERT INTO measurements (compound, value_measured) VALUES
  ('CNC(N)=Nc1ccc(C(=O)N(Cc2ccc(C(F)(F)F)cn2)C(C)c2ccccn2)cn1 (stereo not shown)', 182),
  ('CNC(N)=Nc1ccc(C(=O)N(Cc2ccc(C(F)(F)F)cn2)c2csc3cccnc23)cn1', 51),
  ('CNC(N)=Nc1ccc(C(=O)N(Cc2ccc(C(F)(F)F)cn2)C(C)c2ncccn2)cn1 (stereo not shown)', 150),
  ('CNC(N)=Nc1ccc(C(=O)N(Cc2ccc(F)cc2)[C@H](C)c2ccccc2F)cn1', 304);

* * *

# Test system: HCT116 MTAP KO
# Measurement protocol: Cell proliferation inhibition (CellTiter Glo), HCT116 MTAP KO cells
# Format: cell-based
# Study conditions: Homo sapiens, HCT-116, 144 h, cultured 6 days with compound
pIC50: −log10 of the molar value.
Reported pIC50 by item:
Parameter measured: pIC50

INSERT INTO measurements (compound, parameter_measured, value_measured) VALUES
  ('CN/C(N)=N\c1ccc(C(=O)N(Cc2ccc(-c3ccc(N4CCOCC4)nc3)cn2)[C@H](C)c2ccccc2F)cn1', 'pIC50', 6.84),
  ('CNC(N)=Nc1ccc(C(=O)N(Cc2ccc(C(F)(F)F)cn2)C(C)c2ccccc2C(F)(F)F)cn1 (stereo not drawn)', 'pIC50', 6.03),
  ('CNC(N)=Nc1ccc(C(=O)N(Cc2ccc(C(F)(F)F)cn2)C(C)c2ccc(F)cc2)cn1 (stereo not drawn)', 'pIC50', 6.34);

* * *

# Target or system: PRMT5-MTA (Homo sapiens)
# Sequence (O14744 whole entry): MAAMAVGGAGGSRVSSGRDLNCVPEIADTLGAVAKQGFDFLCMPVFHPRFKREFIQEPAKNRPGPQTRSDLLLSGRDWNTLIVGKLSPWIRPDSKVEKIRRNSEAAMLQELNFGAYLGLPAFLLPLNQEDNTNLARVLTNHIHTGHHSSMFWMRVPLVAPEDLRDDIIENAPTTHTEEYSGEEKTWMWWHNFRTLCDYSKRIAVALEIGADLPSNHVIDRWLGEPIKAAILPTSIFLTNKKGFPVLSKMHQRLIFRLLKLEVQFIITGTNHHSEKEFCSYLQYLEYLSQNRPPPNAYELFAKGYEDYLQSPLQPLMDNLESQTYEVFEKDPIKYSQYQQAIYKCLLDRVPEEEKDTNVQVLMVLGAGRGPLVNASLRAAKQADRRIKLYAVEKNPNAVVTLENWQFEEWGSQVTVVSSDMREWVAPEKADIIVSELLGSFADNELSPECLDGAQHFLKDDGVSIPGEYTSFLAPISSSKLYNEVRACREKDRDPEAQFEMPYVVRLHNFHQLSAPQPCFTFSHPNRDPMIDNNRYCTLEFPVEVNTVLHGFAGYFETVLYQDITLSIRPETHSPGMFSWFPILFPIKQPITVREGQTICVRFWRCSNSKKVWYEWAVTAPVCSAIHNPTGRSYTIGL
# Sequence (Q9BQA1 whole entry partner): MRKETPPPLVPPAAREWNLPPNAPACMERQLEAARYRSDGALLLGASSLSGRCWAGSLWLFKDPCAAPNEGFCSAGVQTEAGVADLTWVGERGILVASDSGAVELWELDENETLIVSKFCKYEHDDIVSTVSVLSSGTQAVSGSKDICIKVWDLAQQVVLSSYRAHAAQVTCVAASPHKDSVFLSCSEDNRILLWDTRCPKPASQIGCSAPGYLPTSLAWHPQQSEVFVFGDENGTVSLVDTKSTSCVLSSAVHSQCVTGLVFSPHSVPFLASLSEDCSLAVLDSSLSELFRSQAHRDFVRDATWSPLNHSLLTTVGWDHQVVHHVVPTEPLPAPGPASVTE
# Measurement protocol: biochemical
# Study conditions: IC50 (nM), PRMT5+MTA enzyme activity inhibition; PRMT5/MET50 protein 1 nM, 5'-deoxy-5'-adenosine 1 µM, SAM 2.5 µM, Histone H4 substrate 5 nM
Parameter measured: IC50 (nM)

INSERT INTO assay_data (compound, value_measured) VALUES
  ('CNC(N)=Nc1ccc(C(=O)N(Cc2ccc(C(F)(F)F)cc2F)C(C)c2cccc3nccnc23)cn1 (stereo not drawn)', 4.4),
  ('CNC(N)=Nc1ccc(C(=O)N(Cc2ccc(C(F)(F)F)cn2)n2ccc3cccnc32)cn1', 5.8),
  ('CNC(N)=Nc1ccc(C(=O)N(Cc2ccc(C(F)(F)F)cn2)C(C)c2ccc(C)cc2)cn1 (stereo not drawn)', 1.9),
  ('CNC(N)=Nc1ccc(C(=O)N(Cc2cccc(Cl)c2)[C@H](C)c2ccccc2F)cn1', 5.9),
  ('CN/C(N)=N\c1ccc(C(=O)N(Cc2ccc(OC(F)(F)F)cn2)[C@H](C)c2ccccc2F)cn1', 4),
  ('CC(c1ncccn1)N(Cc1ccc(C(F)(F)F)cn1)C(=O)c1ccc(N=C(N)NCCN(C)C)nc1 (stereo not drawn)', 1.3),
  ('CNC(N)=Nc1ccc(C(=O)N(Cc2ccc(C(F)(F)F)cn2)C(C)c2ncccn2)cn1 (stereo not drawn)', 1.7),
  ('CNC(N)=Nc1ccc(C(=O)N(Cc2ccccc2)[C@H](C)c2ccccc2F)cn1', 4.6),
  ('CNC(=Nc1ccc(C(=O)N(Cc2ccc(C(F)(F)F)cn2)C(C)c2ncccn2)cn1)NC (stereo not drawn)', 4.7),
  ('CNC(N)=Nc1ccc(C(=O)N(Cc2ccncc2)[C@H](C)c2ccccc2F)cn1', 4),
  ('CN/C(N)=N\c1ccc(C(=O)N(Cc2ccc(-c3ccc(N4CCN(C)CC4)nc3)cn2)[C@H](C)c2ccccc2F)cn1', 9.7),
  ('CNC(N)=Nc1ccc(C(=O)N(Cc2ccc(C(F)(F)F)cn2)C2CCCc3cccc(F)c32)cn1 (stereo not drawn)', 7.1),
  ('CNC(N)=Nc1ccc(C(=O)N(Cc2ccc3c(cnn3C)c2)[C@H](C)c2ccccc2F)cn1', 2.6),
  ('CN/C(N)=N\c1ccc(C(=O)N(Cc2ccc(C(F)(F)F)cn2)[C@H]2CCCc3ccccc32)cn1', 3.2),
  ('CNC(N)=Nc1ccc(C(=O)N(Cc2ccc3cnccc3c2)[C@H](C)c2ccccc2F)cn1', 8.7),
  ('CNC(N)=Nc1ccc(C(=O)N(Cc2ccc(C(F)(F)F)cn2)c2cccc3ccccc23)cn1', 1.4),
  ('CNC(N)=Nc1ccc(C(=O)N(Cc2ccc(-c3cnc(C)nc3)cn2)[C@H](C)c2ccccc2F)cn1', 3.9),
  ('CNC(N)=Nc1ccc(C(=O)N(Cc2ccc(C(F)(F)F)cn2)C(C)c2ccncc2)cn1 (stereo not drawn)', 1.2),
  ('CNC(N)=Nc1ccc(C(=O)N(Cc2ccc(C(F)(F)F)cn2)C2CCOc3cccnc32)cn1 (stereo not drawn)', 1.5),
  ('CN/C(N)=N\c1ccc(C(=O)N(Cc2ccc(C(F)(F)F)cn2)[C@H](C)c2ccc(F)cc2F)cn1', 4.2),
  ('CN/C(N)=N\c1ccc(C(=O)N(Cc2ccc(C(F)(F)F)cn2)C(C)c2cccc3nccnc23)cn1 (stereo not drawn)', 1),
  ('CNC(N)=Nc1ccc(C(=O)N(Cc2ccc(C(F)(F)F)cn2)C(C)c2ccccc2)cn1 (stereo not drawn)', 1.5),
  ('CNC(N)=Nc1ccc(C(=O)N(Cc2ccc(C(F)(F)F)cn2)C(C)C2CC2)cn1 (stereo not drawn)', 1),
  ('CN/C(N)=N\c1ccc(C(=O)N(Cc2ccc(C(F)(F)F)cn2)C(C)c2ncccc2F)cn1 (single isomer, unassigned) [Compound 65]', 5.4),
  ('CNC(N)=Nc1ccc(C(=O)N(Cc2ccc(C(F)(F)F)cn2)n2ccc3ccccc32)cn1', 4.1),
  ('CNC(N)=Nc1ccc(C(=O)N(Cc2cccnc2)[C@H](C)c2ccccc2F)cn1', 7.6),
  ('CNC(N)=Nc1ccc(C(=O)N(Cc2ccc(C(F)(F)F)cn2)C(C)c2ccccc2OC(F)(F)F)cn1 (stereo not drawn)', 2.8);

* * *

# Tested on: HCT116 MTAP KO
# Measurement protocol: Cell proliferation inhibition (CellTiter Glo), HCT116 MTAP KO cells
# Type: cell-based
# Study conditions: Homo sapiens, HCT-116, 144 h, cultured 6 days with compound
Reported values of IC50 for individual entries
Parameter measured: IC50 (µM)

INSERT INTO assay_data (molecule, u, value_measured) VALUES
  ('CNC(N)=Nc1ccc(C(=O)N(Cc2ccc3cnccc3c2)[C@H](C)c2ccccc2F)cn1', 'µM', 0.064),
  ('CN/C(N)=N\c1ccc(C(=O)N(Cc2ccc(C(F)(F)F)cn2)C2CCc3cccnc32)cn1 (stereo not drawn)', 'µM', 0.134),
  ('CNC(N)=Nc1ccc(C(=O)N(Cc2ccc(C(F)(F)F)cn2)C2CCOc3cccnc32)cn1 (stereo not drawn)', 'µM', 0.081);

* * *

# Target or system: PRMT5-MTA (Homo sapiens)
# Measurement protocol: biochemical
# Study conditions: IC50 (nM), PRMT5+MTA enzyme activity inhibition; PRMT5/MET50 protein 1 nM, 5'-deoxy-5'-adenosine 1 µM, SAM 2.5 µM, Histone H4 substrate 5 nM
Recorded measurements of IC50, one per entry
Parameter measured: IC50 (nM)

INSERT INTO results (molecule, target_or_system, value_measured) VALUES
  ('CNC(N)=Nc1ccc(C(=O)N(Cc2ccccc2)Cc2ccc(C(F)(F)F)cn2)cn1', 'PRMT5-MTA (Homo sapiens)', 3.6),
  ('CNC(N)=Nc1ccc(C(=O)N(Cc2ccc(C(F)(F)F)cn2)c2cccc3cccnc23)cn1', 'PRMT5-MTA (Homo sapiens)', 1),
  ('CNC(N)=Nc1ccc(C(=O)N(Cc2ccc(C(F)(F)F)cn2)C(C)c2ncccn2)cc1 (stereo not shown)', 'PRMT5-MTA (Homo sapiens)', 1.6),
  ('CNC(N)=Nc1ccc(C(=O)N(Cc2ccc(C(F)(F)F)cn2)C(C)c2cccc3ccccc23)cn1 (stereo not shown)', 'PRMT5-MTA (Homo sapiens)', 1.6),
  ('CNC(N)=Nc1ccc(C(=O)N(Cc2ccc(C(F)(F)F)cn2)C2CCOc3ccccc32)cn1 (stereo not shown)', 'PRMT5-MTA (Homo sapiens)', 0.7),
  ('COCCNC(N)=Nc1ccc(C(=O)N(Cc2ccc(C(F)(F)F)cn2)C(C)c2ncccn2)cn1 (stereo not shown)', 'PRMT5-MTA (Homo sapiens)', 2.9),
  ('CNC(N)=Nc1ccc(C(=O)N(Cc2ccc(-c3cccnc3)cn2)[C@H](C)c2ccccc2F)cn1', 'PRMT5-MTA (Homo sapiens)', 7.7),
  ('CNC(N)=Nc1ccc(C(=O)N(Cc2ccc(C)nc2)[C@H](C)c2ccccc2F)cn1', 'PRMT5-MTA (Homo sapiens)', 5.8),
  ('CNC(N)=Nc1ccc(C(=O)N(Cc2ccc(C(F)(F)F)cn2)c2cccc3nccnc23)cn1', 'PRMT5-MTA (Homo sapiens)', 1.7),
  ('CNC(N)=Nc1ccc(C(=O)N(Cc2ccc(F)c(C)c2)[C@H](C)c2ccccc2F)cn1', 'PRMT5-MTA (Homo sapiens)', 3.1),
  ('COC(=O)CNC(N)=Nc1ccc(C(=O)N(Cc2ccc(C(F)(F)F)cn2)C(C)c2ncccn2)cn1 (stereo not shown)', 'PRMT5-MTA (Homo sapiens)', 5.5),
  ('CN/C(N)=N\c1ccc(C(=O)N(Cc2ccc3nc(C)sc3c2)[C@H](C)c2ccccc2F)cn1', 'PRMT5-MTA (Homo sapiens)', 7.7),
  ('CN/C(N)=N\c1ccc(C(=O)N(Cc2ccc(C(F)(F)F)cn2)C2CCc3cccnc32)cn1 (stereo not shown)', 'PRMT5-MTA (Homo sapiens)', 1.6),
  ('CNC(N)=Nc1ccc(C(=O)N(Cc2ccc(C(F)(F)F)cn2)c2csc3cccnc23)cn1', 'PRMT5-MTA (Homo sapiens)', 2.6),
  ('CN/C(N)=N\c1ccc(C(=O)N(Cc2ccc(C(C)(F)F)cn2)[C@H](C)c2ccccc2F)cn1', 'PRMT5-MTA (Homo sapiens)', 5.4),
  ('CN/C(N)=N\c1ccc(C(=O)N(Cc2ccc(-c3ccc(N4CCOCC4)nc3)cn2)[C@H](C)c2ccccc2F)cn1', 'PRMT5-MTA (Homo sapiens)', 5.7),
  ('CNC(N)=Nc1ccc(C(=O)N(Cc2ccc(C(F)(F)F)cn2)C2CCCc3cccnc32)cn1 (stereo not shown)', 'PRMT5-MTA (Homo sapiens)', 2.6),
  ('CNC(N)=Nc1ccc(C(=O)N(Cc2ccc(C(F)(F)F)cn2)[C@@H]2CCc3ccccc32)cn1', 'PRMT5-MTA (Homo sapiens)', 4),
  ('CNC(N)=Nc1ccc(C(=O)N(Cc2ccc3sc(NC)nc3c2)[C@H](C)c2ccccc2F)cn1', 'PRMT5-MTA (Homo sapiens)', 7.8),
  ('CNC(N)=Nc1ccc(C(=O)N(CC2CCCCO2)C(C)c2ccccc2F)cn1 (stereo not shown)', 'PRMT5-MTA (Homo sapiens)', 4.2),
  ('CC(C)NC(N)=Nc1ccc(C(=O)N(Cc2ccc(C(F)(F)F)cn2)C(C)c2ncccn2)cn1 (stereo not shown)', 'PRMT5-MTA (Homo sapiens)', 2.3),
  ('CNC(N)=Nc1ccc(C(=O)N(Cc2ccc(C(F)(F)F)cn2)C(C)c2ncccc2F)cn1 (racemic)', 'PRMT5-MTA (Homo sapiens)', 0.4);
